Measured pIC50, listed per entry.
Molecular target: Cysteinyl leukotriene receptor 2 (Homo sapiens, UniProt Q9NS75)
Sequence (Q9NS75 whole entry): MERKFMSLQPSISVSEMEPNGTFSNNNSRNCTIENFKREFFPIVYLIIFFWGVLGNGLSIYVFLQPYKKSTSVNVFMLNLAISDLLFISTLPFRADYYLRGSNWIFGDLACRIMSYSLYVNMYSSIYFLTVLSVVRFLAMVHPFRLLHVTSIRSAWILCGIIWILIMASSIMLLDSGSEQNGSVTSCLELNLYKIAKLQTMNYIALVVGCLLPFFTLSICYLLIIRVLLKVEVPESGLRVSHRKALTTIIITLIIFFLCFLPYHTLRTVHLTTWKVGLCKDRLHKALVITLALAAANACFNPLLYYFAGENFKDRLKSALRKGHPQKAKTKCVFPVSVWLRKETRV
Assay: Antagonist activity at human CysLT2 receptor expressed in HEK293 cells assessed as inhibition of LTD4-inudced intracellular calcium influx preincubated for 30 mins before LTD4 addition by Fura2-AM assay
pIC50: −log10 of the molar value.
Measured property: pIC50

O=C(O)CCCN1CC(C(=O)O)Oc2c(NC(=O)c3ccc(OCCCCCc4ccccc4)cc3)cccc21 (centres undefined) :: 9.21
O=C(O)c1ccc(OCCCc2ccc(OCCCCOc3ccccc3)cc2)c(C(=O)NC2CCCC(C(=O)O)C2)c1 (centres undefined) :: 7.28
O=C(O)CCCN1CC(C(=O)O)Oc2c(NC(=O)c3ccc(OCCCOc4ccccc4)cc3)cccc21 (centres undefined) :: 7.80
CCC(=O)N1CC(C(=O)O)Oc2c(NC(=O)c3ccc(OCCCCc4ccccc4)cc3)cccc21 (centres undefined) :: 5.28
